system.name: T1, EsCas13d, nuclease-dead (Eubacterium siraeum, UniProt B0MS50, R295A;H300A;R849A;H854A)
T1 sequence: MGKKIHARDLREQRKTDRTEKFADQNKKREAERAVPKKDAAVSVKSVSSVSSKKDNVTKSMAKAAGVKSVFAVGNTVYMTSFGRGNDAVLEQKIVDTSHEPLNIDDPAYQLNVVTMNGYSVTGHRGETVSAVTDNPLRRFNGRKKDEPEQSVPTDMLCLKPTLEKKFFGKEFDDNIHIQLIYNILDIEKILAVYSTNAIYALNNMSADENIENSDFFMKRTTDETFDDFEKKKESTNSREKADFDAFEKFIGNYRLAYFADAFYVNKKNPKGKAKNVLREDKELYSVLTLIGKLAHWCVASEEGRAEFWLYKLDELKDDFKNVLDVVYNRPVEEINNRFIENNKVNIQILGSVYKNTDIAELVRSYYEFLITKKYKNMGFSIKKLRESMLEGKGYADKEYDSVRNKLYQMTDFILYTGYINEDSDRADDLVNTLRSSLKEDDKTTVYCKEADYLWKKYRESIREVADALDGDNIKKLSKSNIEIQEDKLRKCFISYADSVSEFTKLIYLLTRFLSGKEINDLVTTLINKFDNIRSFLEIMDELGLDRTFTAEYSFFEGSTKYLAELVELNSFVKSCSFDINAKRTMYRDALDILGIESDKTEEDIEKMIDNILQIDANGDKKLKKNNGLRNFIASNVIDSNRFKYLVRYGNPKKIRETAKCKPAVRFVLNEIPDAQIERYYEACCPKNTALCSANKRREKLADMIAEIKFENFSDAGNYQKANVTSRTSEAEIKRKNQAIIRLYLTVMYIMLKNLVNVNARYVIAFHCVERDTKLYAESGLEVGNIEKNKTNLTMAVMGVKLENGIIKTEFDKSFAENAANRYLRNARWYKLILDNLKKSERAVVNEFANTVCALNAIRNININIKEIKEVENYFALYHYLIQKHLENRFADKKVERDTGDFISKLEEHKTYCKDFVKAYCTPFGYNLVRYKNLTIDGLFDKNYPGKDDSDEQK
experiment.description: crRNA (strand 1, pre-loaded); Mg2+; 40 mM Tris-HCl pH 7.5, 150 mM NaCl, 6 mM MgCl2, 1 mM DTT, 0.1% Tween-20, 0.2 mg/ml BSA; 25 C; 10 min per concentration, then washed
assay.context: tags: His6-TwinStrep-SUMO cleaved; N-terminal SNAP kept (SNAP-Surface 488); label: 3' end held by stalled T7 RNA polymerase
recorded.endpoint: Kd (nM)
State just the number; it will be interpreted in nM.

What does the record list as Kd for target 1 G12C,A14C (mixed) RNA 1: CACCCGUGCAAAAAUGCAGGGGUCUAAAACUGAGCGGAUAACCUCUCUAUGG RNA 2: GGGAAUGGAUCCACAUCUACGAAUUCGUACCAUAGAGCGCUUAUCCGCUCACCGAGAUCGGAAGAGCACACGU ?
89

// lookup Kd for target 1 del7,del22 (mixed) RNA 1: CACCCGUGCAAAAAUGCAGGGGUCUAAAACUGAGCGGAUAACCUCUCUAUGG RNA 2: GGGAAUGGAUCCACAUCUACGAAUUCGUACAUAGAGAGGUUAUCGCUCACCGAGAUCGGAAGAGCACACGU
22.6

Which measured Kd value corresponds to target 2 MT 5'PFS GGC 3'PFS AUC (mixed) RNA 1: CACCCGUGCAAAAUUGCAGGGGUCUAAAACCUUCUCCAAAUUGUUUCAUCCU RNA 2: GGGAAUGGAUCCACAUCUACGAAUUCGGCAGGAUGAAACAAUUUGGAGAAGAUCAGAUCGGAAGAGCACACGU ?
13.2

Report Kd for target 1 MT 5'PFS UUG 3'PFS UAC (mixed) RNA 1: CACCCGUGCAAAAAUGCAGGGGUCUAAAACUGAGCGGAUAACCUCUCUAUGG RNA 2: GGGAAUGGAUCCACAUCUACGAAUUCUUGCCAUAGAGAGGUUAUCCGCUCAUACAGAUCGGAAGAGCACACGU please.
42.5

The values you see were collected from paper PMC10786891.
